Quick reference for growth inhibition among some compounds
# Measurement Protocol: NCI Yeast Anticancer Drug Screen. Data for the mec2-1 strain (AID 157)
# Measurement Parameters: S. cerevisiae mec2-1 strain, at 50.0 µM, active compounds read high
About 79,000 compounds went through this panel and 15% of them were active in at least one assay; those are over-represented in the sample as a whole.
Response body: numeric value in %, unit text excluded.

Please review the following examples before continuing.
CCCCCCCC(N)=O: -28.1
CN(Cc1ccccc1)C(=O)/C=C/c1ccccc1: 22.1
CC1(C#N)CC/C(=C\c2ccc3c(c2)OCO3)C(=O)C1 (centres undefined): 16.9

We next turn to a different compound, shown below.
Could you share which growth inhibition value was measured for `O=C(O)CS(=O)(=O)CC(=O)O` ? -11.4

---

# Measurement Protocol: NCI Yeast Anticancer Drug Screen. Data for the rad50 strain (AID 155);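 note: 0% = growth of vehicle-only cultures of the same strain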
# Measurement Parameters: S. cerevisiae rad50 strain growth inhibition; at 50.0 µM; active compounds read high
About 79,000 compounds went through this panel and 15% of them were active in at least one assay; those are over-represented in the sample as a whole.
Response key: Yes means growth inhibition >= 10%; No means growth inhibition < 10%.

Illustrative cases are given below, each with its answer.
O=C1NC(=O)C(=O)N1: Yes
O=[N+]([O-])c1ccccc1N=N/C(Cc1ccccc1)=N\Nc1ccccc1: Yes
C=C(C)C(=O)OC1C/C(CO)=C\C(O)C/C(C)=C/C2OC(=O)C(=C)C21 (stereo not drawn): Yes
O=C(O)Cn1c(=O)n(CC(=O)O)c2ccccc21: No
O=S(=O)(Nc1nc2ccccc2nc1N1CCCCCC1)c1ccccc1: No

Test whether the compound `O=S(=O)(O)C1=CC(=N/Cl)/C=CC/1=N\Cl` records growth inhibition of 10% or higher. No

Test whether the compound `O=C1CCCCCN1` records growth inhibition of 10% or higher. Yes

---

# Measurement Protocol: NCI Yeast Anticancer Drug Screen. Data for the mlh1 rad18 strain (AID 175)
# Measurement Parameters: S. cerevisiae mlh1 rad18 strain growth inhibition; at 50.0 µM
# Protocol: Growth inhibition of yeast strains with defined genetic alterations is measured as a screen for potential anti-cancer activity. Selected strains with alterations in DNA damage repair or cell cycle control were exposed to compounds and growth inhibition was measured relative to vehicle treated controls. The strain used in this assay is mlh1 rad18
Compounds without any hit were thinned out: in the full panel of roughly 79,000, 15% have a hit. Activity calls are given as the source filed them. Rule as the data show it: active = growth inhibition above about 70%; inactive = the rest.
Pick one: yes = active, no = inactive

Illustrative cases are given below, each with its answer.
COc1cc(OC)c(NC(=O)ON2C(=O)c3ccccc3C2=O)cc1Cl: no
Nc1n[nH]c(CO)n1: no
Cc1cc(Cl)cc(Cl)c1OCC(=O)O: no
N=C(N)SCC(O)c1ccccc1 (centres undefined): no
CC(=Nc1cc(Cl)cc(Cl)c1)c1ccncc1: no

// outcome(item) with item = `CN(CCS)C(=N)N` no

// outcome(item) with item = `O=C(C(c1ccccc1)c1ccccc1)N(CCO)c1ccccc1` no

---

Quick reference for growth inhibition among some compounds
# Measurement Protocol: NCI Yeast Anticancer Drug Screen. Data for the rad50 strain (AID 155);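 note: 0% = growth of vehicle-only cultures of the same strain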
# Measurement Parameters: S. cerevisiae rad50 strain growth inhibition; at 50.0 µM; active compounds read high
This is part of a sample that, as a whole, favours compounds with a hit. Of some 79,000 tested, about 15% had one in any assay.
Response body: numeric value in %, unit text excluded.

Please review the following examples before continuing.
SCCNCc1ccccn1: -22.1
NC1=NN(O)C2=CC(Br)C=CC2=N1 (configuration not stated): 10.3

Could you share which growth inhibition value was measured for `CC(=O)CC(=O)N1CCCCCC1` ? -0.65

Could you share which growth inhibition value was measured for `CN1CCCC1=Nc1ccc([N+](=O)[O-])cc1` ? 23.1

Could you share which growth inhibition value was measured for `C=C1CC[C@H]2C(C)=CC[C@H]3C(=C)C(=O)O[C@@H]3[C@@H]12` ? -36.4

Could you share which growth inhibition value was measured for CC(COc1ccccc1)OC(=O)CCl (configuration not stated) ? 0.75

Could you share which growth inhibition value was measured for O=C1NC(=O)C(c2ccc(Cl)c(Cl)c2)N1 (configuration not stated) ? 11.2

Could you share which growth inhibition value was measured for `COc1ccccc1NC(=O)C1=C(C)NC(C)=C(C(=O)Nc2ccccc2OC)C1c1ccc(C(C)C)cc1` ? 18.2

Could you share which growth inhibition value was measured for CN(CCO)CC(O)Cn1cnc2ncnc(N)c21 (configuration not stated) ? 21.2
